These data points were gathered from the supplement of paper PMC10724198.

I'd appreciate it if you could supply protein stability index values for the items below.
- Test system: Saccharomyces cerevisiae
- EXPERIMENT DESCRIPTION: protein stability index of tFT-peptide fusion (C-terminal peptide) (PSI (0-1 scale)); higher = more stable (slower turnover)
- EXPERIMENTAL PARAMETERS: genetic background: cdc53-1; temperature: 37 C
Simply state the number, no unit and no words.

Determine its reported protein stability index: GFGRDHGNDTGP
0.733

Determine its reported protein stability index: DMWYLLWRVCYI
0.549

Determine its reported protein stability index: ASAYCCMITRLN
0.574

Determine its reported protein stability index: FLFFLFVVFVFV
0.35

Determine its reported protein stability index: GRAVGLANFTIK
0.756

Determine its reported protein stability index: FSCRRISFFLLV
0.676

Determine its reported protein stability index: FYTYILTVAEAL
0.583

Determine its reported protein stability index: LLVKFTFLIIFT
0.257

Determine its reported protein stability index: VPWSKIAARLII
0.706

Determine its reported protein stability index: QARQLEMYMVVF
0.532

Determine its reported protein stability index: FHLVIYWCVRGP
0.453

Determine its reported protein stability index: AWLWCVCWSIMR
0.414

Determine its reported protein stability index: SFFCTRVLWVFQ
0.612

Determine its reported protein stability index: VIAFFSVLKRYV
0.704

Determine its reported protein stability index: FSPLVCLLFFLF
0.565

Determine its reported protein stability index: CRLLYYIPCGLF
0.703

Determine its reported protein stability index: VSGVLRSMVRLQ
0.748

Determine its reported protein stability index: LFPVASLCLART
0.648

Determine its reported protein stability index: YVLWFVCGVGFV
0.462

----------
- Tested on: Saccharomyces cerevisiae
- EXPERIMENT DESCRIPTION: protein stability index of tFT-peptide fusion (C-terminal peptide) (PSI (0-1 scale)); higher = more stable (slower turnover)
- EXPERIMENTAL PARAMETERS: genetic background: wild type; temperature: 30 C
I'd appreciate it if you could supply protein stability index values for the items below.
Simply state the number, no unit and no words.

Determine its reported protein stability index: ICGLWVCLGHGF
0.595

Determine its reported protein stability index: PPTHLLRTHPPA
0.684

Determine its reported protein stability index: FVSFTAVALFFG
0.567

Determine its reported protein stability index: LPPALAPLPPPL
0.572

Determine its reported protein stability index: DSTWGLGLFSVP
0.64

Determine its reported protein stability index: MSLSLLSLFSSL
0.606

Determine its reported protein stability index: FWMIYPHLLTPP
0.629

Determine its reported protein stability index: LRSAPTLFTRPY
0.677

Determine its reported protein stability index: PPQHRNPAVRRH
0.667

Determine its reported protein stability index: GLPLPPPHPFSL
0.779

Determine its reported protein stability index: PPPPTPRYRAPL
0.671

Determine its reported protein stability index: PLLPCRPILFLL
0.197

Determine its reported protein stability index: SPSVRSPFSLPP
0.738

Determine its reported protein stability index: GRLRLDAAGCMW
0.675

Determine its reported protein stability index: LIRVLRVLRHSS
0.375

Determine its reported protein stability index: GFVRGDRSGVGG
0.702

Determine its reported protein stability index: FVSAFVCLLCLV
0.492

Determine its reported protein stability index: KEDGEIIDRYVL
0.616

Determine its reported protein stability index: FCFYLLFLGFTR
0.431

----------
- System: Saccharomyces cerevisiae
- EXPERIMENT DESCRIPTION: protein stability index of tFT-peptide fusion (C-terminal peptide) (PSI (0-1 scale)); higher = more stable (slower turnover)
- EXPERIMENTAL PARAMETERS: genetic background: wild type; temperature: 30 C
Label Criterion met when protein stability index is at or above 0.7; otherwise label Criterion not met.

Say whether LRGEGAGPEDVG shows protein stability index of 0.7 or more.
Criterion not met

Say whether PFPSFFFCCISL shows protein stability index of 0.7 or more.
Criterion not met

Say whether PPRRSSLSPPLA shows protein stability index of 0.7 or more.
Criterion not met

Say whether RSYSSTGAGDDK shows protein stability index of 0.7 or more.
Criterion met

Say whether AVGSAGRGRLGI shows protein stability index of 0.7 or more.
Criterion not met

Say whether KKKKKKKKTNKE shows protein stability index of 0.7 or more.
Criterion not met

Say whether SPPPPPPRSPPL shows protein stability index of 0.7 or more.
Criterion not met

Say whether GPVAYSMDILVE shows protein stability index of 0.7 or more.
Criterion not met

Say whether KKNERKEKNNTN shows protein stability index of 0.7 or more.
Criterion not met

Say whether GRFVTRAWARSW shows protein stability index of 0.7 or more.
Criterion not met

Say whether TDWCPQSCVCSL shows protein stability index of 0.7 or more.
Criterion not met

Say whether WGRGEWKRGQEA shows protein stability index of 0.7 or more.
Criterion met

Say whether GFGILGLPQPCV shows protein stability index of 0.7 or more.
Criterion not met

Say whether TIMRGEPGQSHF shows protein stability index of 0.7 or more.
Criterion met

Say whether SPPSRLRPAILP shows protein stability index of 0.7 or more.
Criterion not met

Say whether VALSLTSIFFMS shows protein stability index of 0.7 or more.
Criterion not met

Say whether VRRFRYCLGFFR shows protein stability index of 0.7 or more.
Criterion not met

Say whether GDPWLGVRNAVG shows protein stability index of 0.7 or more.
Criterion met

Say whether ILRKTAFRLRVL shows protein stability index of 0.7 or more.
Criterion not met

Say whether AFTLQSRLSSPS shows protein stability index of 0.7 or more.
Criterion not met

Say whether GGWGGGGLGGAF shows protein stability index of 0.7 or more.
Criterion met

Say whether SCPPLKYNNKTY shows protein stability index of 0.7 or more.
Criterion not met

Say whether GVSGQGLVAVEV shows protein stability index of 0.7 or more.
Criterion not met

Say whether WFLLILFSAFAV shows protein stability index of 0.7 or more.
Criterion not met

Say whether WGLGVGGCGWVG shows protein stability index of 0.7 or more.
Criterion not met

Say whether GSVGFRTGRHLV shows protein stability index of 0.7 or more.
Criterion not met

----------
I'd appreciate it if you could supply protein stability index values for the items below.
- Tested on: Saccharomyces cerevisiae
- EXPERIMENT DESCRIPTION: protein stability index of tFT-peptide fusion (C-terminal peptide) (PSI (0-1 scale)); higher = more stable (slower turnover)
- EXPERIMENTAL PARAMETERS: genetic background: wild type; temperature: 30 C

Determine its reported protein stability index: NDLITYMTKAAK [CYC7 C-terminal 12 aa]
0.756

Determine its reported protein stability index: EEAFGKVQTKTF [SOL3 C-terminal 12 aa]
0.756

Determine its reported protein stability index: KLEKKQSERSTH [STE7 C-terminal 12 aa]
0.769

Determine its reported protein stability index: EGVSIIESTFIN [YLR225C C-terminal 12 aa]
0.68

Determine its reported protein stability index: MERRARQQRGQD [MND2 C-terminal 12 aa]
0.717

Determine its reported protein stability index: VMAWTFGYALIG [EMC6 C-terminal 12 aa]
0.452

Determine its reported protein stability index: REDDDEPASLDF [PRI1 C-terminal 12 aa]
0.653

Determine its reported protein stability index: ASLVFPKEKQNV [APC4 C-terminal 12 aa]
0.69

Determine its reported protein stability index: KQKAFIQPKLVF [UTP4 C-terminal 12 aa]
0.692

Determine its reported protein stability index: GLEHSDPFSTFY [DBF2 C-terminal 12 aa]
0.712

Determine its reported protein stability index: GSYATRAYGQKK [FDH1 C-terminal 12 aa]
0.688

Determine its reported protein stability index: RTDPDRYSRLSV [ILT1 C-terminal 12 aa]
0.728

----------
- Test system: Saccharomyces cerevisiae
- EXPERIMENT DESCRIPTION: protein stability index of tFT-peptide fusion (C-terminal peptide) (PSI (0-1 scale)); higher = more stable (slower turnover)
- EXPERIMENTAL PARAMETERS: genetic background: wild type; temperature: 30 C
I'd appreciate it if you could supply protein stability index values for the items below.
Simply state the number, no unit and no words.

Determine its reported protein stability index: RPSLTPSPPPFP
0.64

Determine its reported protein stability index: PFSSPPPLSLPP
0.731

Determine its reported protein stability index: DCPAVLLYAVNW
0.501

Determine its reported protein stability index: VLVVRERGAVDG
0.697

Determine its reported protein stability index: SGLFFRWCRLSW
0.638

Determine its reported protein stability index: TFIKMEKKKDGG
0.663

Determine its reported protein stability index: GSSPPSARVRLF
0.763

Determine its reported protein stability index: LLSCFGFLRVGA
0.608

Determine its reported protein stability index: PPPLHPTTLPQP
0.733

Determine its reported protein stability index: LLVFWRLWWSLS
0.157

Determine its reported protein stability index: GDQTLVSSRQSG
0.66

Determine its reported protein stability index: SSASDVYQVINS
0.676

Determine its reported protein stability index: GARGGSGGGQPG
0.661

Determine its reported protein stability index: RDSLEKCLFEVQ
0.703

Determine its reported protein stability index: SPLLPPPPSPPL
0.633

Determine its reported protein stability index: KKNETKQEKNTR
0.689

Determine its reported protein stability index: NNRLSEDVLCEY
0.665

Determine its reported protein stability index: SSLSPPPPLPPW
0.706

Determine its reported protein stability index: SHAATKGSLFNV
0.631

Determine its reported protein stability index: HHPSPPSPSPAC
0.698

Determine its reported protein stability index: AKRRELKCRVNL
0.674

Determine its reported protein stability index: WLGSGESVGHAG
0.686

Determine its reported protein stability index: RALCGWFAKRMI
0.637

Determine its reported protein stability index: STHLPPLPATLP
0.784

Determine its reported protein stability index: LASSVRSSASVP
0.739

Determine its reported protein stability index: LPPPPPAFLDSF
0.691

Determine its reported protein stability index: FGGKLVTHGISY
0.673

Determine its reported protein stability index: KYYRKKNIEKEN
0.575

Determine its reported protein stability index: VQASESGLRAGV
0.686

Determine its reported protein stability index: LWGGGVGGVRGV
0.641

Determine its reported protein stability index: EFSWGGLAGSFG
0.68

Determine its reported protein stability index: FSRCRRGLVLCL
0.479

Determine its reported protein stability index: VHHAFLPYTLVR
0.485

Determine its reported protein stability index: SRCLALVICYRV
0.265

Determine its reported protein stability index: GFCSVIVLSLLL
0.487

Determine its reported protein stability index: GFFSCAPFPFNG
0.741

Determine its reported protein stability index: PHPLPSPSPPPH
0.692

Determine its reported protein stability index: CPPPFLCSPFVA
0.669

Determine its reported protein stability index: RRRRSITEHRSS
0.693

Determine its reported protein stability index: TFLFPLPFLFFI
0.0963

Determine its reported protein stability index: GFSSRWLMQYMV
0.369

Determine its reported protein stability index: IAKKNKTSKNRK
0.703

Determine its reported protein stability index: PPYPPPHASPAP
0.693

Determine its reported protein stability index: SPPPTPLPPPPP
0.628

Determine its reported protein stability index: GTAFDGGELSEG
0.739

Determine its reported protein stability index: EWCVRKATRDIE
0.659

Determine its reported protein stability index: PRALLCLLSRPC
0.722

Determine its reported protein stability index: WARFRKGEVRSG
0.748

Determine its reported protein stability index: VMRRYVFPSGFF
0.677

Determine its reported protein stability index: GKRRCRREVERK
0.695

Determine its reported protein stability index: KKNEVIKKNLRK
0.616

Determine its reported protein stability index: LRPCSSLPSTPP
0.718

Determine its reported protein stability index: SPPPALPPPRPL
0.749

Determine its reported protein stability index: AGKYCCFMVFVV
0.649

Determine its reported protein stability index: SPGLYGPLSRGM
0.684

Determine its reported protein stability index: NETVIATLGKGA
0.657

Determine its reported protein stability index: FGAEWRGVLSGC
0.773

Determine its reported protein stability index: KKNKNKEYCKVK
0.734

Determine its reported protein stability index: RYLSVPGLEIPK
0.677

Determine its reported protein stability index: AGPGSSSTNHES
0.585

Determine its reported protein stability index: FPPPPPRPPRLP
0.68

Determine its reported protein stability index: TLRTPGFSSSLH
0.721

Determine its reported protein stability index: GYWGRGGGLGGV
0.744

Determine its reported protein stability index: IDQTSKRCKRAC
0.672

Determine its reported protein stability index: LFSLPPRASFSL
0.773

Determine its reported protein stability index: HRLMDTNFSRSP
0.743

Determine its reported protein stability index: GGGGSCWYGNRL
0.635

Determine its reported protein stability index: WWVAGLGSSGGG
0.735

Determine its reported protein stability index: TSAPRGNGKPEQ
0.678

Determine its reported protein stability index: RLVISPRSRPCP
0.725

Determine its reported protein stability index: SVGVGSFVVLGV
0.654

Determine its reported protein stability index: ILISVNRVVLYC
0.217

Determine its reported protein stability index: RSALFLLTLVPI
0.565

Determine its reported protein stability index: PVLRLPHDETAN
0.705

Determine its reported protein stability index: RALYLLALVGVS
0.362

Determine its reported protein stability index: DKGIHKREKFFT
0.734

Determine its reported protein stability index: FCLLSCDTFSSS
0.632

Determine its reported protein stability index: RVGALLAVTCPA
0.446

Determine its reported protein stability index: WRVMCLQRCSGV
0.541

Determine its reported protein stability index: ESLVIIIAGSMF
0.567

Determine its reported protein stability index: ERKRPLAKKTKN
0.643

Determine its reported protein stability index: RLVLRGRWGIGR
0.618
